# measurement_description: molar heat capacity at constant pressure
# condition_context: 343 K; 101.33 kPa; Liquid; Small sample (50 mg) DSC
Recorded molar heat capacity at constant pressure values for a group of molecules are listed next.
A number alone suffices; assume J/K/mol.

Answered examples (4):
### Prompt Recorded molar heat capacity at constant pressure for `CCCC[N+]1(C)CCCC1.FC(F)(F)C(F)(F)[P-](F)(F)(F)(C(F)(F)C(F)(F)F)C(F)(F)C(F)(F)F` , please?
### Response 803

### Prompt Okay, and `CCCCCCCCCCCCCC[P+](CCCCCC)(CCCCCC)CCCCCC.O=S(=O)([N-]S(=O)(=O)C(F)(F)F)C(F)(F)F` ?
### Response 1402

### Prompt Okay, and `CCCCCC[n+]1ccn(C)c1.O=S(=O)([N-]S(=O)(=O)C(F)(F)F)C(F)(F)F` ?
### Response 683

### Prompt Okay, and `CCCC[n+]1ccn(C)c1.O=S(=O)([N-]S(=O)(=O)C(F)(F)F)C(F)(F)F` ?
### Response 634

Next:
### Prompt Recorded molar heat capacity at constant pressure for CCOS(=O)(=O)[O-].CCn1cc[n+](C)c1 [1-ethyl-3-methylimidazolium ethyl sulfate] , please?
### Response 427

---

# measurement_description: molar heat capacity at constant pressure
# condition_context: 293 K; 101.33 kPa; Liquid; Small sample (50 mg) DSC
Recorded molar heat capacity at constant pressure values for a group of compounds are listed next.
A number alone suffices; assume J/K/mol.

Answered examples (4):
### Prompt Recorded molar heat capacity at constant pressure for `CCCCCC[n+]1ccn(C)c1.O=S(=O)([N-]S(=O)(=O)C(F)(F)F)C(F)(F)F` , please?
### Response 669

### Prompt Okay, and `CCn1cc[n+](C)c1.O=S(=O)([N-]S(=O)(=O)C(F)(F)F)C(F)(F)F` ?
### Response 523

### Prompt Okay, and `CCCC[N+]1(C)CCCC1.FC(F)(F)C(F)(F)[P-](F)(F)(F)(C(F)(F)C(F)(F)F)C(F)(F)C(F)(F)F` ?
### Response 767

### Prompt Okay, and `CCCC[N+]1(C)CCCC1.O=S(=O)([N-]S(=O)(=O)C(F)(F)F)C(F)(F)F` ?
### Response 630

Next:
### Prompt Recorded molar heat capacity at constant pressure for `CCCCCCCCCCCCCC[P+](CCCCCC)(CCCCCC)CCCCCC.O=S(=O)([N-]S(=O)(=O)C(F)(F)F)C(F)(F)F` , please?
### Response 1366

---

# measurement_description: molar heat capacity at constant pressure
# condition_context: 333 K; 101.33 kPa; Liquid; Small sample (50 mg) DSC
measured_attribute: molar heat capacity at constant pressure (J/K/mol)
A number alone suffices; assume J/K/mol.

### Prompt Recorded molar heat capacity at constant pressure for `CCCCCCCCCCCCCC[P+](CCCCCC)(CCCCCC)CCCCCC.O=S(=O)([N-]S(=O)(=O)C(F)(F)F)C(F)(F)F` , please?
### Response 1395

Next:
### Prompt Recorded molar heat capacity at constant pressure for `CCCC[N+]1(C)CCCC1.FC(F)(F)C(F)(F)[P-](F)(F)(F)(C(F)(F)C(F)(F)F)C(F)(F)C(F)(F)F` , please?
### Response 796

### Prompt Okay, and `CCn1cc[n+](C)c1.O=S(=O)([N-]S(=O)(=O)C(F)(F)F)C(F)(F)F` ?
### Response 542

### Prompt Okay, and `CCCC[n+]1ccn(C)c1.O=S(=O)([N-]S(=O)(=O)C(F)(F)F)C(F)(F)F` ?
### Response 628

### Prompt Okay, and CCOS(=O)(=O)[O-].CCn1cc[n+](C)c1 [1-ethyl-3-methylimidazolium ethyl sulfate] ?
### Response 415

### Prompt Okay, and `CCCCCCCCn1cc[n+](C)c1.O=S(=O)([N-]S(=O)(=O)C(F)(F)F)C(F)(F)F` ?
### Response 788

### Prompt Okay, and `CCCC[N+]1(C)CCCC1.O=S(=O)([N-]S(=O)(=O)C(F)(F)F)C(F)(F)F` ?
### Response 659

### Prompt Okay, and CCCCn1cc[n+](C)c1.O=S(=O)([O-])C(F)(F)F [1-butyl-3-methylimidazolium trifluoromethanesulfonate] ?
### Response 481

### Prompt Okay, and `CCCCCC[n+]1ccn(C)c1.O=S(=O)([N-]S(=O)(=O)C(F)(F)F)C(F)(F)F` ?
### Response 679

---

Recorded molar heat capacity at constant pressure values for a group of compounds are listed next.
# measurement_description: molar heat capacity at constant pressure
# condition_context: 343 K; 101.33 kPa; Liquid; Small sample (50 mg) DSC
A number alone suffices; assume J/K/mol.

### Prompt Recorded molar heat capacity at constant pressure for CCCCn1cc[n+](C)c1.O=S(=O)([O-])C(F)(F)F [1-butyl-3-methylimidazolium trifluoromethanesulfonate] , please?
### Response 490

### Prompt Okay, and `CCn1cc[n+](C)c1.O=S(=O)([N-]S(=O)(=O)C(F)(F)F)C(F)(F)F` ?
### Response 547

### Prompt Okay, and `CCCC[N+]1(C)CCCC1.O=S(=O)([N-]S(=O)(=O)C(F)(F)F)C(F)(F)F` ?
### Response 660

Now let's try a different one.
### Prompt Recorded molar heat capacity at constant pressure for `CCCCCCCCn1cc[n+](C)c1.O=S(=O)([N-]S(=O)(=O)C(F)(F)F)C(F)(F)F` , please?
### Response 803

---

# measurement_description: molar heat capacity at constant pressure
# condition_context: 348 K; 101.33 kPa; Liquid; Small sample (50 mg) DSC
Please map values of molar heat capacity at constant pressure to classes as shown: b0 (below 500 J/K/mol), b1 (500 J/K/mol to below 800 J/K/mol), b2 (800 J/K/mol or more)

Reference set, count: 2
### Prompt Categorize the following entry: CCOS(=O)(=O)[O-].CCn1cc[n+](C)c1 [1-ethyl-3-methylimidazolium ethyl sulfate]
### Response b0

### Prompt Okay, and `CCCCCC[n+]1ccn(C)c1.O=S(=O)([N-]S(=O)(=O)C(F)(F)F)C(F)(F)F` ?
### Response b1

Next:
### Prompt Categorize the following entry: `CCn1cc[n+](C)c1.O=S(=O)([N-]S(=O)(=O)C(F)(F)F)C(F)(F)F`
### Response b1

### Prompt Okay, and `CCCC[N+]1(C)CCCC1.O=S(=O)([N-]S(=O)(=O)C(F)(F)F)C(F)(F)F` ?
### Response b1

### Prompt Okay, and `CCCCCCCCCCCCCC[P+](CCCCCC)(CCCCCC)CCCCCC.O=S(=O)([N-]S(=O)(=O)C(F)(F)F)C(F)(F)F` ?
### Response b2

### Prompt Okay, and `CCCC[n+]1ccn(C)c1.O=S(=O)([N-]S(=O)(=O)C(F)(F)F)C(F)(F)F` ?
### Response b1

---

# measurement_description: molar heat capacity at constant pressure
# condition_context: 323 K; 101.33 kPa; Liquid; Small sample (50 mg) DSC
Recorded molar heat capacity at constant pressure values for a group of compounds are listed next.
A number alone suffices; assume J/K/mol.

### Prompt Recorded molar heat capacity at constant pressure for `CCCC[N+]1(C)CCCC1.FC(F)(F)C(F)(F)[P-](F)(F)(F)(C(F)(F)C(F)(F)F)C(F)(F)C(F)(F)F` , please?
### Response 788

### Prompt Okay, and `CCCC[N+]1(C)CCCC1.O=S(=O)([N-]S(=O)(=O)C(F)(F)F)C(F)(F)F` ?
### Response 654

Now let's try a different one.
### Prompt Recorded molar heat capacity at constant pressure for `CCCCCCCCCCCCCC[P+](CCCCCC)(CCCCCC)CCCCCC.O=S(=O)([N-]S(=O)(=O)C(F)(F)F)C(F)(F)F` , please?
### Response 1389

---

# measurement_description: molar heat capacity at constant pressure
# condition_context: 303 K; 101.33 kPa; Liquid; Small sample (50 mg) DSC
measured_attribute: molar heat capacity at constant pressure (J/K/mol)
A number alone suffices; assume J/K/mol.

Answered examples (2):
### Prompt Recorded molar heat capacity at constant pressure for `CCCC[N+]1(C)CCCC1.FC(F)(F)C(F)(F)[P-](F)(F)(F)(C(F)(F)C(F)(F)F)C(F)(F)C(F)(F)F` , please?
### Response 773

### Prompt Okay, and `CCCC[n+]1ccn(C)c1.O=S(=O)([N-]S(=O)(=O)C(F)(F)F)C(F)(F)F` ?
### Response 603

Next:
### Prompt Recorded molar heat capacity at constant pressure for `CCCCCCCCCCCCCC[P+](CCCCCC)(CCCCCC)CCCCCC.O=S(=O)([N-]S(=O)(=O)C(F)(F)F)C(F)(F)F` , please?
### Response 1368

---

# measurement_description: molar heat capacity at constant pressure
# condition_context: 348 K; 101.33 kPa; Liquid; Small sample (50 mg) DSC
Recorded molar heat capacity at constant pressure values for a group of molecules are listed next.
A number alone suffices; assume J/K/mol.

Answered examples (2):
### Prompt Recorded molar heat capacity at constant pressure for CCCCn1cc[n+](C)c1.O=S(=O)([O-])C(F)(F)F [1-butyl-3-methylimidazolium trifluoromethanesulfonate] , please?
### Response 495

### Prompt Okay, and `CCCCCCCCn1cc[n+](C)c1.O=S(=O)([N-]S(=O)(=O)C(F)(F)F)C(F)(F)F` ?
### Response 810

Now let's try a different one.
### Prompt Recorded molar heat capacity at constant pressure for `CCCC[N+]1(C)CCCC1.FC(F)(F)C(F)(F)[P-](F)(F)(F)(C(F)(F)C(F)(F)F)C(F)(F)C(F)(F)F` , please?
### Response 806
